The values you see were collected from the MegaScale stability set (Tsuboyama et al. 2023).

B1: r16_88_TrROS_Hall (parent)
chain: EVIELKIKFKTPEQREKLKEIAKKLNAEVVEEKDGEVIIRFKTPEQAERALKEAEKLGAEVEL

Variants of: B1
Method: folding stability dG (cDNA display proteolysis); higher = more stable
Condition Label: PBS, room temperature
If the reported folding stability dG equals or exceeds 4 kcal/mol, assign Yes. If not, assign No.

Worked examples, 8 variants total:
K33Y: Yes
E48T: Yes
K56D: Yes
K52G: Yes
A54H: No
K6Q: Yes
I21V: Yes
K6A: Yes

Does the reported folding stability dG for "T43I" fall at or above the 4 kcal/mol mark?
Yes

API: above_or_equal(metric=folding stability dG, cutoff=4 kcal/mol) for item "E16C"
Yes

Please check the record "E32D" and state if its folding stability dG is at or above 4 kcal/mol.
Yes

Quick check, folding stability dG >= 4 kcal/mol? "V2S"
Yes

Has "N26S" a recorded folding stability dG greater than or equal to 4 kcal/mol?
Yes

Hi team, for "V29A" , is the recorded folding stability dG at or above 4 kcal/mol?
Yes

Check this variant for folding stability dG at or above 4 kcal/mol: "I38H"
Yes

Can "V37N" be said to have folding stability dG at or above 4 kcal/mol?
No

Is it the case that "A50R" has folding stability dG reaching or exceeding 4 kcal/mol?
No

Decide: folding stability dG of "V61N" >= 4 kcal/mol?
Yes

Hi team, for "R40S" , is the recorded folding stability dG at or above 4 kcal/mol?
Yes

Decide: is the reported value of folding stability dG for "E60H" equal to or greater than 4 kcal/mol?
Yes
